For each record, write down the corresponding hAmylin-R funct. EC50.
Biological target: T1, human amylin receptor (amylin 3(a) receptor: human calcitonin receptor with RAMP-3) (human, UniProt P30988 25-474; O60896 24-148)
T1 sequence (looked up) 1: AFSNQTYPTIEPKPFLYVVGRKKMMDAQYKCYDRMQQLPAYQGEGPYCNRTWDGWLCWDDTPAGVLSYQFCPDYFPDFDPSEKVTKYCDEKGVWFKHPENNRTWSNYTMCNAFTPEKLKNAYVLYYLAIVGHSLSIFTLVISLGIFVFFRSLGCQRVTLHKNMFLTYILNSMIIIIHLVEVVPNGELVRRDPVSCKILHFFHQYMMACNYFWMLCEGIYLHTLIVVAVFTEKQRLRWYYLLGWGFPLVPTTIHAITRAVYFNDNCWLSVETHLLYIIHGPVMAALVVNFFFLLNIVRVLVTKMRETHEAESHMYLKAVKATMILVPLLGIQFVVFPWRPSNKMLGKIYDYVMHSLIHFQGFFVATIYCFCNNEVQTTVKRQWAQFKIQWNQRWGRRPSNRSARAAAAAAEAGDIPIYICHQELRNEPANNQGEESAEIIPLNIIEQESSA
T1 sequence (looked up) 2: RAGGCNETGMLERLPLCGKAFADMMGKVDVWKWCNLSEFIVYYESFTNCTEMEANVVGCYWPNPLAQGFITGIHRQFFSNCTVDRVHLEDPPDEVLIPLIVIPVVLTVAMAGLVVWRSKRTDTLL
Test: cell-based or functional assay
Numbered stars: 1 amine (or outer) side, 2 acyl side, 3 side chain; on linkers, the order of the positions; unused ones are H or OH. Bridge positions count the residues as written; N and C are the ends. * marks the point of attachment. C20 diacid = O=C(O)CCCCCCCCCCCCCCCCCCC(=O)*; γGlu = O=C(O)[C@H](CCC(=O)[*:2])N[*:1]
Write it as a number; the unit pM goes unstated.

In: Consider the binder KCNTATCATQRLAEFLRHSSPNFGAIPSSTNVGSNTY (C20 diacid-gGlu on the alpha amino group of the N-terminal residue; disulfide bridge Cys2-Cys7; C-terminal amide, also called compound 9) [N^α1-[(4S)-4-carboxy-4-(19-carboxynonadecanoylamino)butanoyl]-[Glu14,Arg17,Pro21,Pro27]-h-amylin] and give its measured hAmylin-R funct. EC50.
Out: 175

In: Give the measured hAmylin-R funct. EC50 of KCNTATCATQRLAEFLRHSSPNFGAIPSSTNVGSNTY (C20 diacid-gGlu-2xOEG on the alpha amino group of the N-terminal residue; disulfide bridge Cys2-Cys7; C-terminal amide, also called compound 19) .
Out: 307

In: Given {C20 diacid-γGlu}-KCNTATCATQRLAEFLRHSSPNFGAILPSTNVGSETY-NH2 (disulfide 2-7, also called compound 33) , state its recorded hAmylin-R funct. EC50.
Out: 243
